Here, each record is paired with measured remaining at 0.5 h, 2 μM data.
# assay.overview: in vitro
# condition.set: mouse, microsomes, % remaining at 30 min, with NADPH
Number in %, nothing else.

Check the records and state remaining at 0.5 h, 2 μM for Cc1ccccc1C(=O)N/N=C/c1cc(Br)ccc1O [BHBM] 4.93

Quick one: give measured remaining at 0.5 h, 2 μM for O=C(N/N=C/c1cc(Br)cc(Br)c1O)c1ccc(Br)cc1 [D13] 69.3

----------
# assay.overview: Caco-2 permeability
# condition.set: human, Caco-2, pH 7.4, Recovery AP→BL
measured.parameter: recovery at 2 h, 5 μM (%)
Answer in %, number only, no unit symbol.

O=C(N/N=C/c1cc(Br)cc(Br)c1O)c1ccc(Br)cc1 [D13] : 49.8

Let us examine a further case.
Answer with reported recovery at 2 h, 5 μM of C[C@H]1O[C@@H](O[C@H]2[C@@H](O)C[C@H](O[C@H]3[C@@H](O)C[C@H](O[C@H]4CC[C@@]5(C)[C@H](CC[C@@H]6[C@@H]5C[C@@H](O)[C@]5(C)[C@@H](C7=CC(=O)OC7)CC[C@]65O)C4)O[C@@H]3C)O[C@@H]2C)C[C@H](O)[C@@H]1O [Digoxin, reference compound] 82.7

----------
# assay.overview: in vitro
# condition.set: human, Caco-2, pH 7.4
measured.parameter: Papp B→A at 2 h, 5 μM
Remember to put the unit after the number in your answer.

Supply reported Papp B→A at 2 h, 5 μM belonging to this molecule: CC(C)NCC(O)COc1cccc2ccccc12 (stereo not shown) 19.5 ×10⁻⁶ cm/s

----------
# assay.overview: in vitro
# condition.set: human, Caco-2, pH 7.4, Recovery AP→BL
measured.parameter: recovery at 2 h, 5 μM (%)
I only need the number, in %, no unit after it.

State, in one line, measured recovery at 2 h, 5 μM of CC(C)NCC(O)COc1cccc2ccccc12 (stereo not shown) 90.7

----------
# Tested on: C. neoformans
# assay.overview: In vitro killing assay
# condition.set: minimum concentration that kills 100% of C. neoformans cells in 48 h
measured.parameter: K100* (µg/mL)
Report only the number, with the unit µg/mL understood.

O=C(N/N=C/c1cc(Br)ccc1O)c1cc(Br)cc(Br)c1O : 0.5
O=C(N/N=C/c1cc(Br)cc(Br)c1O)c1ccc(Br)cc1 : 0.5

// switching to the query molecule
Please report the measured K100* for O=C(N/N=C/c1cc(Br)ccc1O)c1cccc(Br)c1 [D2] 0.12

----------
# assay.overview: in vitro
# condition.set: monkey
Each entry below lists one item and its recorded Papp at 15 min value.
Your answer should be a plain number; it is taken to be in ×10⁻⁶ cm/s.

Cc1ccccc1C(=O)N/N=C/c1cc(Br)ccc1O : 9

Indicate the recorded Papp at 15 min value for this molecule: Cn1c(=O)c2c(ncn2C)n(C)c1=O [Caffeine, reference compound] 25

Quote Papp at 15 min reported for O=C(N/N=C/c1cc(Br)cc(Br)c1O)c1ccc(Br)cc1 please. 2.2

----------
# assay.overview: in vitro
# condition.set: mouse, microsomes, % remaining at 30 min, without NADPH
Consider the following compounds and their measured remaining at 0.5 h, 2 μM readings.
// units = %; emit number, no label

O=C(N/N=C/c1cc(Br)cc(Br)c1O)c1ccc(Br)cc1 : 88.1

Switching to the query record.
Identify measured remaining at 0.5 h, 2 μM associated with Cc1ccccc1C(=O)N/N=C/c1cc(Br)ccc1O 89.9
